experiment: Cmax in Sprague-Dawley rat at 1 mg/kg, iv measured up to 24 hrs by LC-MS/MS analysis; assay type: ADME, organism-based; parameters: dose 1 mg/kg, route intravenous; conditions: in vivo
measured_metric: Cmax (ng/mL)
Numbers only, in ng/mL.

Query: Cmax for CN1CCC(Nc2ccc(C(=O)Nc3cc(-c4ccc5c(c4)OCO5)n[nH]3)cc2)CC1 ?
Reply: 205

* * *

assay: in vitro; conditions: rat, liver microsomes
measured_metric: half-life at 0.25 h, 1 µM (min)
Give bare numbers, in min.

Query: half-life at 0.25 h, 1 µM for CN1CCC(Nc2ccc(C(=O)Nc3cc(-c4ccc5c(c4)OCO5)n[nH]3)cc2)CC1 ?
Reply: 8.27

* * *

experiment: Mean residence time (0 to t) in Sprague-Dawley rat at 5 mg/kg, po measured up to 24 hrs by LC-MS/MS analysis; type: ADME, organism-based; conditions: in vivo
measured_metric: MRT last at 24 h (h)
One number for each entry, in h.

Query: MRT last at 24 h for CN1CCC(Nc2ccc(C(=O)Nc3cc(-c4ccc5c(c4)OCO5)n[nH]3)cc2)CC1 ?
Reply: 5.9

* * *

test: AUC (0 to infinity) in Sprague-Dawley rat at 5 mg/kg, po measured up to 24 hrs by LC-MS/MS analysis; format: ADME, organism-based; set-up: dose 5 mg/kg, route oral, time infinity; conditions: in vivo
measured_metric: AUC(0-inf) (ng·h/mL)
Numbers only, in ng·h/mL.

Query: AUC(0-inf) for CN1CCC(Nc2ccc(C(=O)Nc3cc(-c4ccc5c(c4)OCO5)n[nH]3)cc2)CC1 ?
Reply: 194

* * *

test: Apparent volume of distribution in Sprague-Dawley rat at 1 mg/kg, iv measured up to 24 hrs by LC-MS/MS analysis; type: ADME, organism-based; settings: in vivo, read-out: Vz
measured_metric: Vd (L/kg)
One number for each entry, in L/kg.

Query: Vd for CN1CCC(Nc2ccc(C(=O)Nc3cc(-c4ccc5c(c4)OCO5)n[nH]3)cc2)CC1 ?
Reply: 18.2

* * *

assay: in vitro; conditions: human, liver microsomes
measured_metric: half-life at 0.25 h, 1 µM (h)
Answers are plain numbers, in h.

Query: half-life at 0.25 h, 1 µM for CN1CCC(Nc2ccc(C(=O)Nc3cc(-c4ccc5c(c4)OCO5)n[nH]3)cc2)CC1 ?
Reply: 1.95

* * *

assay: Oral bioavailability in Sprague-Dawley rat at 5 mg/kg measured up to 24 hrs by LC-MS/MS analysis; format: ADME, organism-based; conditions: in vivo
measured_metric: bioavailability

Query: bioavailability for CN1CCC(Nc2ccc(C(=O)Nc3cc(-c4ccc5c(c4)OCO5)n[nH]3)cc2)CC1 ?
Reply: 22.8%

* * *

assay: Mean residence time (0 to t) in Sprague-Dawley rat at 1 mg/kg, iv measured up to 24 hrs by LC-MS/MS analysis; type: ADME, organism-based; settings: in vivo
measured_metric: MRT last at 24 h (h)
Numbers only, in h.

Query: MRT last at 24 h for CN1CCC(Nc2ccc(C(=O)Nc3cc(-c4ccc5c(c4)OCO5)n[nH]3)cc2)CC1 ?
Reply: 2.75

* * *

test: Tmax in Sprague-Dawley rat at 5 mg/kg, po measured up to 24 hrs by LC-MS/MS analysis; type: ADME, organism-based; conditions: in vivo
measured_metric: Tmax (h)
Give bare numbers, in h.

Query: Tmax for CN1CCC(Nc2ccc(C(=O)Nc3cc(-c4ccc5c(c4)OCO5)n[nH]3)cc2)CC1 ?
Reply: 2.83

* * *

experiment: Cmax in Sprague-Dawley rat at 5 mg/kg, po measured up to 24 hrs by LC-MS/MS analysis; assay type: ADME, organism-based; parameters: dose 5 mg/kg, route oral; conditions: in vivo
measured_metric: Cmax (ng/mL)
One number for each entry, in ng/mL.

Query: Cmax for CN1CCC(Nc2ccc(C(=O)Nc3cc(-c4ccc5c(c4)OCO5)n[nH]3)cc2)CC1 ?
Reply: 27

* * *

assay: AUCt in Sprague-Dawley rat at 1 mg/kg, iv measured up to 24 hrs by LC-MS/MS analysis; format: ADME, organism-based; set-up: dose 1 mg/kg, time < 24 hr, route intravenous; details: in vivo
measured_metric: AUC(0-t) at 24 h (ng·h/mL)
Numbers only, in ng·h/mL.

Query: AUC(0-t) at 24 h for CN1CCC(Nc2ccc(C(=O)Nc3cc(-c4ccc5c(c4)OCO5)n[nH]3)cc2)CC1 ?
Reply: 152

* * *

assay: Apparent clearance in Sprague-Dawley rat at 5 mg/kg, po measured up to 24 hrs by LC-MS/MS analysis; assay type: ADME, organism-based; details: in vivo, read-out: CL(app) (converted)
measured_metric: CL/F (mL/min/kg)
Numbers only, in mL/min/kg.

Query: CL/F for CN1CCC(Nc2ccc(C(=O)Nc3cc(-c4ccc5c(c4)OCO5)n[nH]3)cc2)CC1 ?
Reply: 445

* * *

test: Apparent clearance in Sprague-Dawley rat at 1 mg/kg, iv measured up to 24 hrs by LC-MS/MS analysis; assay type: ADME, organism-based; conditions: in vivo, read-out: CL(app) (converted)
measured_metric: clearance

Query: clearance for CN1CCC(Nc2ccc(C(=O)Nc3cc(-c4ccc5c(c4)OCO5)n[nH]3)cc2)CC1 ?
Reply: 110 mL/min/kg

* * *

assay: AUC (0 to infinity) in Sprague-Dawley rat at 1 mg/kg, iv measured up to 24 hrs by LC-MS/MS analysis; assay type: ADME, organism-based; set-up: dose 1 mg/kg, time infinity, route intravenous; conditions: in vivo
measured_metric: AUC(0-inf) (ng·h/mL)
Give bare numbers, in ng·h/mL.

Query: AUC(0-inf) for CN1CCC(Nc2ccc(C(=O)Nc3cc(-c4ccc5c(c4)OCO5)n[nH]3)cc2)CC1 ?
Reply: 161

* * *

test: Half-life in Sprague-Dawley rat at 5 mg/kg, po measured up to 24 hrs by LC-MS/MS analysis; assay type: ADME, organism-based; conditions: in vivo
measured_metric: half-life (h)
Numbers only, in h.

Query: half-life for CN1CCC(Nc2ccc(C(=O)Nc3cc(-c4ccc5c(c4)OCO5)n[nH]3)cc2)CC1 ?
Reply: 3.07

* * *

experiment: AUCt in Sprague-Dawley rat at 5 mg/kg, po measured up to 24 hrs by LC-MS/MS analysis; assay type: ADME, organism-based; set-up: time < 24 hr, dose 5 mg/kg, route oral; details: in vivo
measured_metric: AUC(0-t) at 24 h (ng·h/mL)
Give bare numbers, in ng·h/mL.

Query: AUC(0-t) at 24 h for CN1CCC(Nc2ccc(C(=O)Nc3cc(-c4ccc5c(c4)OCO5)n[nH]3)cc2)CC1 ?
Reply: 173
